Provide the reported IC50 of each item.
Test system: HepG2 human cancer-cell line
test summary: MTT antiproliferative assay, HepG2
Assay type: cell-based
condition description: MTT, 48 h of exposure, read-out: IC50 (μM) ± SD HepG2
Hi! Could you send only the number? It should be in µM, unit omitted.

The reported value for Cn1c(SCc2ccc(Cl)cc2)nc2cc3ccccc3cc2c1=O in terms of IC50 is 28.8

Please fill in: IC50 reported for CCn1c(SCc2ccccc2)nc2cc3ccccc3cc2c1=O = 36.2

Documented IC50 of CCn1c(=S)[nH]c2cc3ccccc3cc2c1=O : 36.1

In plain terms, CCn1c(SCc2cccc(C#N)c2)nc2cc3ccccc3cc2c1=O has a documented IC50 of 34.2

Lab note: CCn1c(SCCCN2C(=O)c3ccccc3C2=O)nc2cc3ccccc3cc2c1=O gave IC50 of 26

Kindly note the recorded IC50 for COc1cccc2c1C(=O)c1c(O)c3c(c(O)c1C2=O)C[C@@](O)(C(=O)CO)C[C@@H]3O[C@H]1C[C@H](N)[C@H](O)[C@H](C)O1 [Doxorubicin, reference compound] , which is 28.5

Lab note: CCn1c(NN)nc2cc3ccccc3cc2c1=O gave IC50 of 29.8

Entry Cc1cccc(CSc2nc3cc4ccccc4cc3c(=O)n2C)c1 — recorded IC50 = 31.3

For reference, reported IC50 for CCn1c(SCc2cccc(C)c2)nc2cc3ccccc3cc2c1=O stands at 30.7

Lookup result for CCn1c(SCc2cccc(OC)c2)nc2cc3ccccc3cc2c1=O ; measured IC50: 27.5

IC50 for CCSc1nc2cc3ccccc3cc2c(=O)n1C is 29.9

IC50 for COc1cccc(CSc2nc3cc4ccccc4cc3c(=O)n2C)c1 is 31.3

// field: IC50; key: Cn1c(NN)nc2cc3ccccc3cc2c1=O ; value = 28.9

----------
parameter measured: melting point

Item: Cn1c(SCc2ccc(Cl)cc2)nc2cc3ccccc3cc2c1=O [Compound 6] | melting point: 190 to 192 °C

For record CCn1c(SCc2cccc(C#N)c2)nc2cc3ccccc3cc2c1=O [Compound 11] the listed melting point is 140 to 142 °C

// recorded melting point for CCSc1nc2cc3ccccc3cc2c(=O)n1CC [Compound 9] : 107 to 109 °C

For this compound ( CCn1c(SCCN2CCCCC2)nc2cc3ccccc3cc2c1=O [Compound 14] ), measured melting point is 190 to 192 °C

Per the record, Cn1c(SCc2ccccc2)nc2cc3ccccc3cc2c1=O [Compound 4] has melting point of 150 to 152 °C

melting point in this record for CCn1c(SCc2ccccc2)nc2cc3ccccc3cc2c1=O [Compound 10] : 132 to 134 °C

Cc1cccc(CSc2nc3cc4ccccc4cc3c(=O)n2C)c1 [Compound 5] yielded melting point of 155 to 157 °C

In plain terms, Cn1c(SCc2ccc(C#N)cc2)nc2cc3ccccc3cc2c1=O [Compound 7] has a documented melting point of 201 to 203 °C

Briefly, melting point measured for CCn1c(SCc2cccc(C)c2)nc2cc3ccccc3cc2c1=O [Compound 12] : 186 to 188 °C

Lab note: measured melting point of CCSc1nc2cc3ccccc3cc2c(=O)n1C [Compound 3] was 115 to 117 °C
